// reported half-life at 1 µM per item
assay: Metabolic stability in rat liver microsomes assessed as elimination half life at 1 uM by LC-MS/MS analysis; type: ADME, Microsome; settings: read-out: beta t1/2
Write down the numeric answer in min and omit the unit.

Example compounds with recorded half-life at 1 µM:
Cc1ncc2n1-c1ccc(Cl)cc1C(c1ccccc1F)=NC2 : 2.58
O=C(O)c1cn(C2CC2)c2cc(Nc3nccc(Cc4ccc(F)cc4F)n3)ccc2c1=O : 41

Query block: Could you tell me which half-life at 1 µM is on file for "Cc1ccc(Cc2ccnc(Nc3ccc4c(=O)c(C(=O)O)cn(C5CC5)c4c3)n2)cc1C" ?
Result block: 59.2

Query block: Could you tell me which half-life at 1 µM is on file for "Cc1ccc(Oc2ccnc(Nc3ccc4c(=O)c(C(=O)O)cn(C5CC5)c4c3)n2)cc1C" ?
Result block: 8.7
